- assaySystem: T1, cyBCMA (cynomolgus, UniProt A0A2K5UD97 1-53)
- T1 construct: Soluble analyte in SPR; construct not described; also called cyno BCMA
- T1 sequence (A0A2K5UD97 entry or part of it): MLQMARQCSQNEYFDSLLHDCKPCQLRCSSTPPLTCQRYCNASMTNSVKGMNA
- experimentDescription: SPR, immobilised IgG, 25° C
measureName: T½ (s)

• L1.LGF/L3.KW/P6E01 (antibody, V domains shown, IgG in the assay) VH: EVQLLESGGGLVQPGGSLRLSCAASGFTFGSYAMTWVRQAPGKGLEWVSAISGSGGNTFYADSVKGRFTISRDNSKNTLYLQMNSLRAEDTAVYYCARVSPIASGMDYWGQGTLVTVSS VL: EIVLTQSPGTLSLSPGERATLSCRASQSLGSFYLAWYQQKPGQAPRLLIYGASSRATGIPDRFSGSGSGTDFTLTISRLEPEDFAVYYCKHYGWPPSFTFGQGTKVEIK = 36
• L1.LGF/L3.KW/H3.AL (antibody, V domains shown, IgG in the assay) VH: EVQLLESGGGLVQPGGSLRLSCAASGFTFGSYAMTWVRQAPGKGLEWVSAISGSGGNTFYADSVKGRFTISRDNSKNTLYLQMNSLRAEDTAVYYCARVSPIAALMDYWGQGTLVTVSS VL: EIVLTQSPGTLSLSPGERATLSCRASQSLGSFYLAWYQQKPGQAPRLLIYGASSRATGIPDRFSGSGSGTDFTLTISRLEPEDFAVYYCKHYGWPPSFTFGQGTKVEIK = 60
• L1.GDF/L3.PY/H3.AQ (antibody, V domains shown, IgG in the assay) VH: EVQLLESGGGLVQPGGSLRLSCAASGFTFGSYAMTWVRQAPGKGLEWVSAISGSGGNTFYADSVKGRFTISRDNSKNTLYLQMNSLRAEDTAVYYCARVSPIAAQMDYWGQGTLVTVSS VL: EIVLTQSPGTLSLSPGERATLSCRASQSVGDFYLAWYQQKPGQAPRLLIYGASSRATGIPDRFSGSGSGTDFTLTISRLEPEDFAVYYCQHYPYPPSFTFGQGTKVEIK = 42
